Entry source: the supplement of paper PMC10126150

system: ATP; assay: switch fluorescence ratio, 500 uM ATP over buffer (Cy3 cluster intensity, sum of 5 cycles each) (fold (ratio)); higher = stronger signal-on switching upon ATP binding; sequences stand for … in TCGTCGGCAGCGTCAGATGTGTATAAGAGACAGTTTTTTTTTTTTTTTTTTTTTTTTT…TC; conditions: aptamer strand: ATP DNA aptamer (quencher-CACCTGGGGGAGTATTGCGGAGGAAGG + anchor), 100 nM annealed; ATP concentration: 500 uM;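 also: ATP exposure 15 min at 22 °C before imaging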
// label = y if switch fluorescence ratio is not less than 1, otherwise n

AGATATTGGC	y
GACGTGATCC	y
TGTTAAATGA	n

Task: Is it the case that AACTTTTTTA has switch fluorescence ratio reaching or exceeding 1?
Result: n

Task: Is it the case that CCAGGGTGGG has switch fluorescence ratio reaching or exceeding 1?
Result: y

Task: Is it the case that TCCGAAAAAG has switch fluorescence ratio reaching or exceeding 1?
Result: y
